Target: T1, HipA mutant D309Q (Escherichia coli, UniProt P23874 1-440, D309Q)
T1 sequence: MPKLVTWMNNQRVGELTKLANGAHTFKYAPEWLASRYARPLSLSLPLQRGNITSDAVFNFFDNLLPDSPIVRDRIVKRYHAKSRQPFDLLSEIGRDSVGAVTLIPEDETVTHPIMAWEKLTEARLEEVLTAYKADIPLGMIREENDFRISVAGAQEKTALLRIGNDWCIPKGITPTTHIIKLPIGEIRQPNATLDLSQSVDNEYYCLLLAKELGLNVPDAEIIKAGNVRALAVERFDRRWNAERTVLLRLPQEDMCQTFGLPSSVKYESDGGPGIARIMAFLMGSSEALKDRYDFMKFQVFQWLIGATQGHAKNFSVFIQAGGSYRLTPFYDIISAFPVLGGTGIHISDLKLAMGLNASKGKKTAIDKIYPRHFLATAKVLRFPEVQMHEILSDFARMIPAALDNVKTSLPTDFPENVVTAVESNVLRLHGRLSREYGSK
Experiment: fluorescence polarisation
REPORTED METRIC: Kd (µM)
Provide the reading as a plain figure in µM.

Query: Kd; subject: IREGGRTVGA [EF-Tu peptide IREGGRTVGA]
15

Values from paper PMC2764309
